Attribution: patent US20240408169A1

# Tested on: OVCAR3 cells
# ASSAY_EXPLANATION: MTT proliferation assay, OVCAR3;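 also: compound given as an 8- or 10-point series, one day after plating, with exposure covering roughly 3-4 cell doublings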
# Assay type: cell-based
# ASSAY_SETUP: 5 days compound exposure, 1:3 serial dilution starting at 10 μM
*1 amine or outer side, *2 acyl side, *3 side chain or, on linkers, in order; H or OH if unused. Where a SMILES comes first, the peptide text is derived from it. Bridges are numbered along the chain shown (N, C = ends). [ ]: non-standard residue; d: D form. The star is where a group is joined. X75 = CC(C)C(=O)N1C2C=C(c3ccc(Cl)cc3C[C@@H](C(=O)[*:2])N(C)[*:1])CC1COC2; X122 = CN([C@@H](Cc1cc(Cl)ccc1C1=CCN(C(=O)C(C)(C)C)CC1)C(=O)[*:2])[*:1]; X148 = CN([C@@H](Cc1cc(Cl)ccc1-c1ccc(S(C)(=O)=O)nc1)C(=O)[*:2])[*:1]; X87 = CN([C@@H](Cc1cc(F)ccc1-c1ccc(N2CCOCC2)cc1)C(=O)[*:2])[*:1]; NMehhhLys(Me) = CN([C@@H](CCCCCCCN(C)[*:3])C(=O)[*:2])[*:1]; X118 = Cc1cc(-c2ccc(Cl)cc2C[C@@H](C(=O)[*:2])N(C)[*:1])cnn1; X188 = CN([C@@H](Cc1cc(Cl)ccc1-c1ccn(C)n1)C(=O)[*:2])[*:1]; X22 = CN([C@@H](Cc1cc(Cl)ccc1-c1cnn(C)c1)C(=O)[*:2])[*:1]; NMe3Pal(2-OcPr,5-F) = CN[C@@H](Cc1cc(F)cnc1OC1CC1)C(=O)O; NMe(hhhLys) = CN([C@@H](CCCCCCCN[*:3])C(=O)[*:2])[*:1]; cBuCO(3,3-F2-1-CF3) = O=C(C1(C(F)(F)F)CC(F)(F)C1)*; Pro(trans-4-F) = O=C(O)[C@@H]1C[C@@H](F)CN1; Pro(4,4-F2) = O=C(O)[C@@H]1CC(F)(F)CN1; Gly(cPr) = N[C@H](C(=O)O)C1CC1
MEASUREMENT_KIND: log10(GI50) (log10 of the value in nM)
Units before log transform: nM; reported quantity: GI50; transform: log10.

Worked cases, log10(GI50) given:
COMPOUND | log10(GI50)
CC(C)C[C@@H]1NC(=O)[C@@H](N(C)C(=O)[C@@H](NC(=O)[C@@H]2C[C@@H](F)CN2C(=O)C2(C(F)(F)F)CC(F)(F)C2)C2CC2)CCCCCCCN(C)C(=O)[C@H](Cc2cc(F)ccc2-c2ccc(N3CCOCC3)cc2)N(C)C1=O [Example 337] ({cBuCO(3,3-F2-1-CF3)}-[Pro(trans-4-F)][Gly(cPr)][NMehhhLys(Me)]L[X87]; lactam 3-C) | 1.00
CC(C)C[C@@H]1NC(=O)[C@@H](N(C)C(=O)[C@@H](NC(=O)[C@@H]2C[C@@H](F)CN2C(=O)C2(C(F)(F)F)CC(F)(F)C2)C2CC2)CCCCCCCNC(=O)[C@H](Cc2cc(Cl)ccc2C2=CCN(C(=O)C(C)(C)C)CC2)N(C)C1=O [Example 99] ({cBuCO(3,3-F2-1-CF3)}-[Pro(trans-4-F)][Gly(cPr)][NMe(hhhLys)]L[X122]; lactam 3-C) | 1.48
CC(C)C[C@@H]1NC(=O)[C@@H](N(C)C(=O)[C@@H](NC(=O)[C@@H]2C[C@@H](F)CN2C(=O)C2(C(F)(F)F)CC(F)(F)C2)C2CC2)CCCCCCCN(C)C(=O)[C@H](Cc2cc(Cl)ccc2-c2ccn(C)n2)N(C)C1=O [Example 205] ({cBuCO(3,3-F2-1-CF3)}-[Pro(trans-4-F)][Gly(cPr)][NMehhhLys(Me)]L[X188]; lactam 3-C) | 1.48
Cc1cc(-c2ccc(Cl)cc2C[C@H]2C(=O)N(C)CCCCCCC[C@H](N(C)C(=O)[C@@H](NC(=O)[C@@H]3C[C@@H](F)CN3C(=O)C3(C(F)(F)F)CC(F)(F)C3)C3CC3)C(=O)N[C@@H](CC(C)C)C(=O)N2C)cnn1 [Example 296] ({cBuCO(3,3-F2-1-CF3)}-[Pro(trans-4-F)][Gly(cPr)][NMehhhLys(Me)]L[X118]; lactam 3-C) | 2.00
CC(C)C[C@@H]1NC(=O)[C@@H](N(C)C(=O)[C@@H](NC(=O)[C@@H]2C[C@@H](F)CN2C(=O)C2(C(F)(F)F)CC(F)(F)C2)C2CC2)CCCCCCCN(C)C(=O)[C@H](Cc2cc(Cl)ccc2-c2ccc(S(C)(=O)=O)nc2)N(C)C1=O [Example 201] ({cBuCO(3,3-F2-1-CF3)}-[Pro(trans-4-F)][Gly(cPr)][NMehhhLys(Me)]L[X148]; lactam 3-C) | 1.78
CC(=O)N1C2CCC1CC(c1ccc(F)cc1C[C@H]1C(=O)N(C)CCCCCCC[C@H](N(C)C(=O)[C@@H](NC(=O)[C@@H]3C[C@@H](F)CN3C(=O)C3(C(F)(F)F)CC(F)(F)C3)C3CC3)C(=O)N[C@@H](CC(C)C)C(=O)N1C)C2 (single isomer, unassigned) [Example 59-P2] | 1.70
CC(C)C[C@@H]1NC(=O)[C@@H](N(C)C(=O)[C@@H](NC(=O)[C@@H]2CC(F)(F)CN2C(=O)C2(C(F)(F)F)CC(F)(F)C2)C2CC2)CCCCCCCN(C)C(=O)[C@H](Cc2cc(Cl)ccc2-c2cnn(C)c2)N(C)C1=O [Example 343] ({cBuCO(3,3-F2-1-CF3)}-[Pro(4,4-F2)][Gly(cPr)][NMehhhLys(Me)]L[X22]; lactam 3-C) | 1.00
Cc1nnc(-c2ccc(Cl)cc2C[C@H]2C(=O)NCCCCC=CC[C@H](N(C)C(=O)[C@@H](NC(=O)[C@@H]3C[C@@H](F)CN3C(=O)C3(C(F)(F)F)CCC3)C3CC3)C(=O)N[C@@H](CC(C)C)C(=O)N2C)o1 (single isomer, unassigned) [Example 117-P1] | 2.26
CC(C)C[C@@H]1NC(=O)[C@@H](N(C)C(=O)[C@@H](NC(=O)[C@@H]2C[C@@H](F)CN2C(=O)C2(C(F)(F)F)CC(F)(F)C2)C2CC2)CC=CCCCCN(C)C(=O)[C@H](Cc2cc(F)ccc2-c2cnn(C3CCOCC3)c2)N(C)C1=O | 1.00
CC(C)C[C@@H]1NC(=O)[C@@H](N(C)C(=O)[C@@H](NC(=O)[C@@H]2C[C@@H](F)CN2C(=O)C2(C(F)(F)F)CC(F)(F)C2)C2CC2)CCCCCCCNC(=O)[C@H](Cc2cc(Cl)ccc2C2=CC3COCC(C2)N3C(=O)C(C)C)N(C)C1=O (stereo partly drawn) [Example 194] ({cBuCO(3,3-F2-1-CF3)}-[Pro(trans-4-F)][Gly(cPr)][NMe(hhhLys)]L[X75]; lactam 3-C) | 1.00

Query string: Could you tell me which log10(GI50) is on file for CC(C)C[C@@H]1NC(=O)[C@@H](N(C)C(=O)[C@@H](NC(=O)[C@@H]2C[C@@H](F)CN2C(=O)C2(C(F)(F)F)CC(F)(F)C2)C2CC2)CCCCCCCNC(=O)[C@H](Cc2cc(F)cnc2OC2CC2)N(C)C1=O [Example 127] ({cBuCO(3,3-F2-1-CF3)}-[Pro(trans-4-F)][Gly(cPr)][NMe(hhhLys)]L[NMe3Pal(2-OcPr,5-F)]; lactam 3-C) ?
Result string: 1.48

Query string: For `CC(C)C[C@@H]1NC(=O)[C@@H](N(C)C(=O)[C@@H](NC(=O)[C@@H]2C[C@@H](F)CN2C(=O)C2(C(F)(F)F)CC(F)(F)C2)C2CC2)CCC=CCCCNC(=O)[C@H](Cc2cc(Cl)ccc2-c2cnn(S(C)(=O)=O)c2)N(C)C1=O` then?
Result string: 1.60
